target: T1, human CD3 epsilon/delta heterodimer, biotin labeled (human, UniProt P04234 22-105, biotin labeled); assay: SPR, biotinylated CD3e/d on SA chip;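 note: analytes injected over immobilized CD3 heterodimer, association 60-120 s and dissociation 120-420 s, rate and affinity constants obtained by fitting sensorgrams to a 1:1 binding model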
T1 construct: bought (Acro Biosystems); also called Human CD3e/d
Assay Endpoint: koff (s⁻¹)
Report as a plain number; the unit s⁻¹ is understood.

Use the examples below as a reference point.
[
  {
    "Binder": "ULBP2xCD3 bispecific CD58 fusion containing CD3 variant CD3-01 (bispecific antibody, V domains shown) VH: EVQLLESGGGLVQPGGSLKLSCAASGFTFNTYAMNWVRKAPGKGLEWVARIRSKYNNYATYYADSVKDRFTISRDDSKNTAYLQMNNLKTEDTAVYYCVRHGNFGNSYVSWFAYWGQGTLVTVSS VL: ELVVTQEPSLTVSPGGTVTLTCRSSTGAVTTSNYANWVQDKPGQAPRGLIGGTNKRAPGTPARFSGSLLGGKAALTLSGVQPEDEAEYYCALWYSNLWVFGGGTKLTVL",
    "Assay Endpoint": "koff",
    "Test Result": 0.00819
  },
  {
    "Binder": "ULBP2xCD3 bispecific CD58 fusion containing CD3 variant CD3-A6 (bispecific antibody, V domains shown) VH: EVQLLESGGGLVQPGGSLKLSCAASGFTFNDYAMNWVRKAPGKGLEWVARIRSKYNNYATYYADSVKDRFTISRDDSKNTAYLQMNNLKTEDTAVYYCVRHGNFGNSYVSWFAYWGQGTLVTVSS VL: ELVVTQEPSLTVSPGGTVTLTCRSSTGAVTTSNYANWVQDKPGQAPRGLIGGTNKRAPGTPARFSGSLLGGKAALTLSGVQPEDEAEYYCALWYSNLWVFGGGTKLTVL",
    "Assay Endpoint": "koff",
    "Test Result": 0.0479
  }
]

Problem: Please report the recorded koff for ULBP2xCD3 bispecific CD58 fusion containing CD3 variant CD3-A5 (bispecific antibody, V domains shown) VH: EVQLLESGGGLVQPGGSLKLSCAASGFTFNTYAMNWVRKAPGKGLEWVARIRSKYNNYATYYADSVKDRFTISRDDSKNTAYLQMNNLKTEDTAVYYCVRHGNFGDDYVSWFAYWGQGTLVTVSS VL: ELVVTQEPSLTVSPGGTVTLTCRSSTGAVTTSNYANWVQDKPGQAPRGLIGGTNKRAPGTPARFSGSLLGGKAALTLSGVQPEDEAEYYCALWYSQLWVFGGGTKLTVL .
Result: 0.0245

Hey, just so you know, these numbers are from patent US20250197496A1.
